Listed here: molecules with reported IC50 for Cyclin-dependent kinase 5/CDK5 activator 1 (Homo sapiens).
measured_property: IC50

# structure, measured_property, value_measured
data = [
    ("N#Cc1cc2cnccc2c2[nH]c3ccc(Cl)cc3c12", "IC50", "> 10 µM"),
    ("N#C/C(=C\\c1ccccc1)c1c[nH]c2ccccc12", "IC50", "> 10 µM"),
    ("N#C/C(=C\\c1cccnc1)c1c[nH]c2ccccc12", "IC50", "> 10 µM"),
    ("N#C/C(=C\\c1cccnc1)c1c[nH]c2ccc(Cl)cc12", "IC50", "> 10 µM"),
    ("N#C/C(=C\\c1cccnc1)c1c[nH]c2ncccc12", "IC50", "0.13 µM"),
    ("N#Cc1cc2cnccc2c2[nH]c3ccc(F)cc3c12", "IC50", "> 10 µM"),
]
